- Test system: PC3 cells
- test details: Cell cycle analysis and BrdU pulse labeling in PC3 cells, FIG. 9-11
- Assay type: cell-based
- condition parameters: 15 μM
- Method: Analysis of Cell Cycle Progression by FACS Serum-Starved Synchronization Cells were synchronized in G1 by serum starvation. Briefly, exponentially growing cells were plated overnight. […] Ethanol fixative was removed by centrifugation and the cells were washed with 1 mL ice-cold PBS/1% BSA. […] Cells were washed once more with PBS/1% BSA and re-suspended in DAPI for 30 minutes before being analyzed by flow cytometry. The PLK1 PBD-inhibitors were analyzed further by cell cycle analysis in PC3 cells (FIG. 9). […]
quantity name: cell cycle phenotype (in words)

CCCCCCCCc1ccc(C(=O)Nc2ccc(OC)cc2C(=O)O)cc1 | G1 delay or arrest
CCCCCCCCc1ccc(C(=O)Nc2ccc(C)cc2C(=O)O)cc1 | G1 delay or arrest

###

- Tested on: PTEN deficient prostate cancer (PC3) cells
- test details: Cell viability assay (MTT), PC3
- Type: cell-based
- condition parameters: MTT, 72 hours; read-out: PCC-3
quantity name: IC50 (µM)
Provide only the numeric value, understood in µM.

Some solved cases for reference:
CCCCCCCCc1ccc(C(=O)Nc2cccc(C(F)(F)F)c2C(=O)O)cc1 | 27.9
CCCCCCCCc1ccc(C(=O)Nc2cccc(F)c2C(=O)O)cc1 | 11.6
CCCCCCCCc1ccc(C(=O)Nc2cccc(O)c2C(=O)O)cc1 | 34.2

Next compound, please.
The reported IC50 value, PTEN deficient prostate cancer (PC3) cells, for CCCCCCCCc1ccc(C(=O)Nc2ccc(C)cc2C(=O)O)cc1 reads 16.3

###

- measurement target: PLK3 PBD (335-646) (Homo sapiens, UniProt Q9H4B4)
- Sequence (Q9H4B4 335-646): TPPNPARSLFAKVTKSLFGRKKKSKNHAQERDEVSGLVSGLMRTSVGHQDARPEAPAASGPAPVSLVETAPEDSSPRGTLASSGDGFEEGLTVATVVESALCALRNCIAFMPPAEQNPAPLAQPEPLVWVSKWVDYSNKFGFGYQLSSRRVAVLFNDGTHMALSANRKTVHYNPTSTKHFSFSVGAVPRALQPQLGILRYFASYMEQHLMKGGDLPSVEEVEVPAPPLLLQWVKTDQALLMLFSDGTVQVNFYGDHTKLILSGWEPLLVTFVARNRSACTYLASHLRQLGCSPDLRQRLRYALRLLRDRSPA
quantity name: IC50 (µM)
Provide only the numeric value, understood in µM.

CCCCCCCCc1ccc(CNc2ccc(C)cc2C(=O)O)cc1 | 157

Next molecule, please.
Lookup result for CCCCCCc1ccc(C(=O)Nc2ccc(C)cc2C(=O)O)cc1 ; measured IC50: 24.5

###

- measurement target: PLK1 PBD (367-603) (Homo sapiens)
- Construct: PLK1 PBD (367-603); purchased BPS Biosciences Inc. (San Diego, Calif.)
- test details: Fluorescence polarization assay, PLK1 PBD
- Format: binding
- condition parameters: PLK1 PBD binding, fluorescence polarization; read-out: PLK1 IC50
quantity name: pIC50
The scale used: pIC50 is minus the common logarithm of the concentration in molar units.

Some solved cases for reference:
CCCCCCCCc1ccc(C(=O)Nc2cc(F)cc(F)c2C(=O)O)cc1 | 4.51
CCCCCCCCc1ccc(CNc2ccccc2C(=O)O)cc1 | 5.02
CCCCCCCCc1ccc(C(=O)Nc2ccc(C)cc2C(=O)O)cc1 | 5.67

Lookup result for CCCCCCCCc1ccc(C(=O)Nc2cccc(F)c2C(=O)O)cc1 ; measured pIC50: 4.95

Lookup result for CCCCCCc1ccc(C(=O)Nc2cccc(C(=O)O)c2)cc1 ; measured pIC50: 3.89

Lookup result for CCCCCCCCc1ccc(C(=O)Nc2cccc([N+](=O)[O-])c2C(=O)O)cc1 ; measured pIC50: 5.22

Lookup result for CCCCCCCCCCCCc1ccc(C(=O)Nc2ccccc2C(=O)O)cc1 ; measured pIC50: 5.22

Lookup result for CCCCCCCCc1ccc(C(=O)Nc2ccc(OC)cc2C(=O)O)cc1 ; measured pIC50: 5.23

Lookup result for CCCCCc1ccc(C(=O)Nc2ccccc2C(=O)O)cc1 ; measured pIC50: 3.65

###

- measurement target: PLK1 PBD (367-603) (Homo sapiens, UniProt P53350)
- Construct: PLK1 PBD (367-603); purchased BPS Biosciences Inc. (San Diego, Calif.)
- Sequence (P53350 367-603): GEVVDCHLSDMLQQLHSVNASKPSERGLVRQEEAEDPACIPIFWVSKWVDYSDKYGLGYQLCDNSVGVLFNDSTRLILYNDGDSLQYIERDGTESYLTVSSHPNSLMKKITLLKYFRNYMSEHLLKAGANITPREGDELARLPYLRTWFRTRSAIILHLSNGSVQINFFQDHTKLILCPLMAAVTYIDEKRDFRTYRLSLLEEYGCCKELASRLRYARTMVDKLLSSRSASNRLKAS
- test details: Fluorescence polarization assay, PLK1 PBD
- Type: binding
- condition parameters: Table 1, fluorescence polarization; read-out: PLK1 PBD IC50
quantity name: IC50

Lookup result for CCCCCCCCc1ccc(C(=O)NCCC(=O)O)cc1 [SCCP ID No. 5975] ; measured IC50: > 200 µM

Lookup result for CCCCCCc1ccc(C(=O)Nc2ncccc2C(=O)O)cc1 [SCCP ID No. 5904] ; measured IC50: > 600 µM

Lookup result for CCCCCCCCc1ccc(C(=O)NCC(C)C(=O)O)cc1 (stereo not shown) [SCCP ID No. 5976] ; measured IC50: 343 to 450 µM

Lookup result for CCCCCCCCc1ccc(C(=O)NCc2ccccc2C(=O)O)cc1 [SCCP ID No. 5913] ; measured IC50: 105 µM

###

- measurement target: PLK1 PBD (367-603) (Homo sapiens, UniProt P53350)
- Construct: PLK1 PBD (367-603); purchased BPS Biosciences Inc. (San Diego, Calif.)
- test details: Fluorescence polarization assay, PLK1 PBD
- Type: binding
- condition parameters: fluorescence polarization
- Method: Fluorescence Polarization Assay Materials were dissolved in DMSO (10 mM) and diluted from 10 nM to 600 μM (maximum of 6% DMSO tolerance in the assay). […] Incubation was carried out at room temperature for 45 minutes. Fluorescence was measured using a DTX 880 plate reader and Multimode Analysis software (Beckman Coulter, Brea, Calif.). […] An IC50 value for each compound was calculated from linear regression analysis of the plots.
quantity name: binding to the PLK1 PBD (in words)

CCCCCCc1ccc(C(=O)Nc2ccccc2O)cc1 | No binding was observed
CCCCCCc1ccc(C(=O)Nc2ccccc2OP(=O)(O)O)cc1 | No binding was observed
CCCCCCc1ccc(C(=O)Nc2cccc(S(N)(=O)=O)c2)cc1 | No binding was observed
